- Test Details: Biodistribution and biodegradation after i.v. application (HPLC of MTO, SQUID/MRX of iron oxide)
- Type: in vivo, New Zealand White Rabbits
- Setup Conditions: New Zealand White, rabbit, liver, iv, regular systemic dose of pure MTO (10 mg MTO/m2 body surface), n=6, HPLC, read-out: MTO concentration in liver tissue
- Description: For the animal experiments New Zealand White Rabbits were used. The animals, weighing about 4.5 - 5.2 kg, were treated (i.v.) with ferrofluid bound MTO containing a drug amount of 10% compared to the regular systemic dose which requires 10 mg MTO/m2 body surface (n=5). The other study group (n=6) received the regular systemic dose of pure MTO. After 24h hours the animals were sacrificed and the organs harvested. […] Tissue homogenates have also been measured by SQUID.
Parameter: concentration at 24 h (ng/g)
Numbers only, in ng/g.

Inquiry: Requested read-out: concentration at 24 h. Entry: O=C1c2c(O)ccc(O)c2C(=O)c2c(NCCNCCO)ccc(NCCNCCO)c21
Reply text: 190
